reported_metric: melting point (°C)

I: CCCc1nn(-c2ccccc2)c(=O)n1C(N)=O
II: O=CCC=O
QUERY: Given I and given II , which shows the smaller recorded melting point? // caller expects the label of the chosen entry
RESULT: II
(II: 72 °C, I: 133 °C)

a: CCCc1ccc(OCC(=O)N2CCN(C(=O)COc3ccc(CCC)cc3OC)CC2)c(OC)c1
b: O=C1OC(c2ccc([N+](=O)[O-])cc2)Cc2ccccc21 (stereo not given)
QUERY: In terms of reported melting point, does a or b have the smaller number? Field: selected label. Fill in the label of the entry you choose.
RESULT: a

* * *

reported_metric: melting point (°C)

| compound | melting point (°C) |
| --- | --- |
| COc1ccc2c(c1)C(C(=O)O)C2 (stereo not drawn) | 93 |
| NS(=O)(=O)c1ccc(CCCCCO)cc1 | 86 |
| O=C(O)c1ccccc1Oc1ccccc1 | 113 |
| CCCCCCCCCCCCCCCCC1CCCCC1 | 33.6 |
| O=C(O)c1ccc(F)c(F)c1F | 141 |
| O=C(O)CC[C@H]1CC[C@H](CCC(=O)O)C1=O | 121 |
| CCC(N)C(=O)O (stereo not drawn) | 304 |

A: CCOC(=O)c1cnc2cc(OCC(C)C)c(OCC(C)C)cc2c1O
B: N#CCS(=O)(=O)c1ccccc1
QUERY: Select one. Lower melting point: A or B Give the chosen item's label as your response.
RESULT: B
(B: 112 °C, A: 290 °C)

* * *

reported_metric: melting point (°C)

| compound_structure_string | value_observed |
| --- | --- |
| Sc1nc(-c2ccccc2)c(-c2ccccc2)o1 | 253 |
| Cc1cc(C)c2c(-c3ccccc3)nn(-c3ccccc3)c2n1 | 114 |
| COc1ccc(-n2nc(C(=O)c3cccc4ccccc34)sc2=N)cc1 | 75 |
| Cn1ccc2c1CCCC2=O | 85 |
| OCC(CO)(CO)CBr | 76 |

I: CCOc1ccc(NC(N)=O)cc1
II: Cc1nc(CO)cs1
QUERY: Among I and II , which shows a numerically higher melting point result? Your answer should be the label of the entry you select.
RESULT: I

1: CC1=CCCC1
2: CCOC(=O)COc1cccc2ccccc12
QUERY: Pick one: 1 or 2 . Which one has the lower reported melting point? Answer = label.
RESULT: 1
(1: -126 °C, 2: 56.5 °C)

* * *

reported_metric: melting point (°C)

Reference set, count: 8
| molecule | unit_descriptor | melting point |
| --- | --- | --- |
| Cc1ccc2c(c1)CCCC2 | °C | -40 |
| CC12CCC(C(C(=O)c3cccc4ccccc34)C1=O)C2(C)C (stereo unspecified) | °C | 104 |
| O=C(O)CCCC1CCCCC1 | °C | 31 |
| O=[N+]([O-])CCO | °C | -80 |
| CC(=O)OC1C2COC(O2)C(OC(C)=O)C1OC(C)=O (stereo unspecified) | °C | 110 |
| CCCCCCCCOC(=O)CCCC | °C | -42.3 |
| Cc1cc[nH]c1 | °C | -48.4 |
| O=C(O)COc1ccccc1O | °C | 128 |

P: CCCCCCSc1nc2ccc(NC(=O)COc3ccc(Cl)cc3Cl)cc2s1
Q: COc1ccc(C(=O)Cl)cc1
R: CC1=CC(c2ccccc2)c2ccccc21 (stereo unspecified)
QUERY: Please list these in order of increasing melting point. Thank you! Your answer should be the labels, listed in the requested order.
RESULT: Q, R, P

P: COc1ccccc1-c1ccc(/C=C2/C=C(CC(C)C)OC2=O)o1
Q: Cc1c(C)c(C)c(C(=O)Cc2ccccc2)c(C)c1C
QUERY: Lab note: record which item had the higher melting point, P or Q . // caller expects the label of the chosen entry
RESULT: Q
(Q: 135 °C, P: 89 °C)

P: CCCCCCCC/C=C\CCCCCCCCCCCC(=O)O
Q: CC(=O)OCC1C(=O)C2(C)CCC1C2(C)C (stereo unspecified)
QUERY: Of P and Q , which shows the smaller melting point value? API: response body contains the label of the selected item.
RESULT: P

I: O=c1c2ccccc2cc2n1CCc1ccccc1-2
II: CC1=C(C(=O)OCC(C)C)C(c2ccccc2)NC(=S)N1 (stereo unspecified)
III: CCOC(=O)C(C)(C)C1(c2ccc(OC)cc2)CCC(=O)O1 (stereo unspecified)
IV: CC1=CCC(=O)O1
QUERY: Please list the entries, largest melting point first. Please write the labels in the order that was asked for.
RESULT: II, I, III, IV
(II: 153 °C, I: 101 °C, III: 59 °C, IV: 18 °C)

* * *

reported_metric: melting point (°C)

Example cases with answers are listed next.
| compound | melting point, °C |
| --- | --- |
| C=C(C)C(=O)Cl | -60 |
| O=C1N(c2ccccc2)C(=O)[C@]2(Cl)C=C(c3ccccc3)[C@]12Cl | 152 |
| FC(F)(Cl)CBr | -76 |
| O=C(O)c1cccc2cccc(C(=O)O)c12 | 260 |
| O=C1NC2CC=CCC12 (stereo not drawn) | 122 |
| O=Cc1ccc(O)c(C(=O)O)c1 | 250 |
| CCOC(=O)N1C(=O)c2ccccc2C1=O | 91 |

1: C#CCCCCCCCCCCCCCCCCCC
2: COC(=O)CCc1c([N+](=O)[O-])cc2c(c1[N+](=O)[O-])NC(=O)CC2
QUERY: Which record would sort first by descending melting point, 1 or 2 ? Lab log: write the label of the selected item as the result.
RESULT: 2

* * *

reported_metric: melting point (°C)

// solved cases for melting point follow
| compound | unit_descriptor | value_observed |
| --- | --- | --- |
| CCCCC(=O)OC1(C(=O)CO)CCC2C3CCC4=CC(=O)CCC4(C)C3C(O)CC21C (stereo unspecified) | °C | 218 |
| O=C1CC(c2ccccc2)Cc2ccncc21 (stereo unspecified) | °C | 83 |
| COc1ccc2cc([N+](=O)[O-])ccc2c1C=O | °C | 174 |
| Nc1ccc(C(=O)O)cc1F | °C | 215 |
| CC(=O)N(Nc1ccccc1)c1ccc(-c2ccc(/N=N/c3ccccc3)cc2)cc1 | °C | 244 |
| Cc1ccc(C)c(OCCCC(C)(C)C(=O)O)c1 | °C | 61 |

A: COC(=O)c1cc(Cl)cc(Cl)c1
B: Cc1c2c(c(C)c3c1CC3=O)C(=O)C2
QUERY: Could you point out whether the larger melting point belongs to A or to B ? Response format: the label of the selected entry.
RESULT: B

* * *

reported_metric: melting point (°C)

| compound | reported_metric | value_observed |
| --- | --- | --- |
| O=C(O)C(O)c1ccc(Cl)cc1 (stereo not drawn) | melting point | 120 |
| COC(=O)c1cc(OC)c(OC)cc1N | melting point | 129 |
| C/C=C/C(=O)N1C(=O)OC[C@@H]1C(C)C | melting point | 56 |
| CC=Cc1cccc(OC)c1O | melting point | 81 |
| O=C(CCc1ccccc1)CCc1ccccc1 | melting point | 13.5 |
| Nc1nn(-c2ccccc2)c2nc3ccccc3nc12 | melting point | 210 |
| Fc1c(F)c(F)c(Br)c(Br)c1F | melting point | 12 |
| CCCSc1ncccc1C(=O)O | melting point | 161 |
| CCOC(=O)CN1CCN(C(=O)C=Cc2cc(OC)c(OC)c(OC)c2)CC1 | melting point | 96 |
| CCC1(C)CC(=O)NC1=O (stereo not drawn) | melting point | 65 |

I: C(=N\CC/N=C/c1ccc2c(c1)OCO2)/c1ccc2c(c1)OCO2
II: CNC(=O)NC
QUERY: Consider I and II . Which of these has its melting point at a higher number? Refer to your chosen item by its label in the answer.
RESULT: I

1: O=C(NCO)c1cccnc1
2: Cc1ccc(CO)cc1F
QUERY: For the pair 1 and 2 , which entry has the numerically smaller recorded melting point? Answer by stating the label of the chosen item.
RESULT: 2
(2: 35 °C, 1: 142 °C)

A: C=CC=CC#N
B: CC12CCC(C(=CNC(N)=O)C1=O)C2(C)C (stereo not drawn)
QUERY: Of the pair A and B , name the member with the lesser recorded melting point. Answer format: the label of the selected item.
RESULT: A

a: CC(=O)OC1CCC2(C)C(CCC3C4CC=C(C=Cc5ccccc5)C4(C)CCC32)C1 (stereo not drawn)
b: Ic1cccs1
c: CN1CCCN(C)C1=O
QUERY: Arrange the 3 compounds by rising melting point, starting with the smallest. Present the labels in the sequence the task asks for.
RESULT: b, c, a
(b: -40 °C, c: -20 °C, a: 119 °C)

* * *

reported_metric: melting point (°C)

| compound_structure_string | unit_descriptor | value_observed |
| --- | --- | --- |
| Nc1c(CN2CCCCCC2)c(=O)oc2ccccc12 | °C | 153 |
| O=C(NCCc1c[nH]cn1)C1=NC=NC1 | °C | 176 |
| O=C1COc2cccnc2N1 | °C | 206 |
| COP(=S)(OC)Oc1cc(Cl)c(Cl)cc1Cl | °C | 41 |
| Cc1ccc(C(=O)Cl)o1 | °C | 29 |
